Reference source for all entries: PubChem BioAssay (NCATS)

# Test system: HB3
# assay overview: qHTS profiling for inhibitors of Plasmodium falciparum proliferation (AID 504749); also: nearly all actives have a fitted effect of over 60% in size
# condition set: P. falciparum in erythrocytes, SYBR Green DNA, 72 h; series mostly up to 28.7 µM
Inconclusive results are not listed. Calls of active or inactive are those of the source. Calls follow the shape of the dose curve; as a rule, active = well fitted inhibition curve with a large enough effect; inconclusive = small, poorly fitted or top-dose-only effect; inactive = flat fitted curve, though single readings scatter.
Outcomes: TRUE = active, FALSE = inactive

compound	label
COc1ccc2cc1Oc1cc3c(cc1OC)CC[N+](C)(C)C3Cc1ccc(cc1)Oc1c(OC)c(OC)cc3c1C(C2)[N+](C)(C)CC3 (stereo unspecified)	FALSE
Cc1cncc(C(=O)O)[n+]1[O-]	FALSE
C[C@@H]1CCN(C(=O)[C@H](CCCNC(=N)N)NS(=O)(=O)c2cccc3c2NC[C@H](C)C3)[C@@H](C(=O)O)C1	FALSE
C[C@@H]1CC2C3CCC4=CC(=O)C=C[C@]4(C)[C@@]3(F)[C@@H](O)C[C@]2(C)[C@@]1(O)C(=O)COC(=O)c1cccc(S(=O)(=O)O)c1 (stereo partly specified)	FALSE
O=C1NC(=O)C2C3C=CC(C3)C12 (stereo unspecified)	FALSE
CCC1OC(=O)C[C@H](O)C(C)[C@@H](O[C@@H]2OC(C)C(O)C(N(C)C)C2O)C(CCN2CC(C)CC(C)C2)CC(C)C(=O)/C=C/C(C)=C\[C@@H]1COC1OC(C)C(O)C(OC)C1OC (stereo partly specified)	FALSE
CO[C@H]1/C=C/O[C@@]2(C)Oc3c(C)c(O)c4c(O)c(c5c(c4c3C2=O)NC2(CCN(CC(C)C)CC2)N=5)=NC(=O)/C(C)=C\C=C\[C@H](C)[C@H](O)[C@@H](C)[C@@H](O)[C@@H](C)[C@H](OC(C)=O)[C@@H]1C	TRUE
CCCC(=O)O[C@]1(C(=O)COC(C)=O)CC[C@H]2C3C[C@H](F)C4=CC(=O)C=CC4(C)[C@@]3(F)[C@@H](O)CC21C (stereo partly specified)	FALSE
NC(=O)NC(CCC(=O)O)C(=O)O (stereo unspecified)	FALSE
CCN(CC)CC(=O)Nc1c(C)cc(C)cc1C	FALSE
COc1cccc2c1C(=O)c1c(O)c3c(c(O)c1C2=O)C[C@@](O)(C(=O)CO)C[C@@H]3OC1CC(N)C(O)C(C)O1 (stereo partly specified)	TRUE
OCC1OC(O)C(O)C(O)C1O (stereo unspecified)	FALSE
Cc1ccc(Nc2ncccc2C(=O)O)cc1C	FALSE
CC(O)C1CCC2C3CCC4CC(O)CCC4(C)C3CCC12C (stereo unspecified)	FALSE
CCC(=O)OC1C(N(C)C)CC(C)O[C@H]1O[C@H]1[C@H](C)[C@@H](O[C@H]2CC(OC)[C@@H](O)C(C)O2)[C@H](C)C(=O)O[C@@H](CC)[C@](C)(O)[C@@H](O)[C@H](C)C(=O)[C@@H](C)C[C@]1(C)O (stereo partly specified)	FALSE
OC[C@@H]1O[C@](CO)(O[C@H]2O[C@H](CO)[C@@H](O)[C@H](O)[C@H]2O)[C@H](O)[C@H]1O	FALSE

###

# assay overview: Stat Signaling Pathway (AID 446);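 also: ME-180 cervical cancer cells given 40 pM IL-6 alongside compound; SIE-controlled beta-lactamase reporter measured as 460/530 nm FRET emission ratio; % is scaled to controls: 0 for no effect and ±100 for the full control effect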
# condition set: ME-180 (cervical carcinoma) SIE beta-lactamase reporter, IL-6 stimulated, 5 h; at 17.2 µM (top of the series) unless noted
Records with an inconclusive call do not appear.
Consider the following molecules and their measured activity, negative = inhibition readings.
observable: activity, negative = inhibition (%)

molecule	observable	reading unit	measured
CCCOc1ccc(CSC(CC(=O)O)C(=O)O)cc1 (stereo not given)	activity, negative = inhibition	%	6.22
CCOc1ccc(N2C(=O)CC(N)C2=O)cc1 (stereo not given)	activity, negative = inhibition	%	-5.4
O=P(Cc1nnco1)(c1ccccc1)c1ccccc1	activity, negative = inhibition	%	-0.63
O=S(=O)(c1ccccc1)N(CC(O)CN1CCCCC1)c1ccccc1 (stereo not given)	activity, negative = inhibition	%	3.01
Cc1c(C(=O)O)sc(=S)n1-c1ccccc1	activity, negative = inhibition	%	4.36
O=C(Nc1ccc2c(c1)OCO2)c1cc2n(n1)C(C(F)(F)F)CC(c1ccccc1)N2 (stereo not given)	activity, negative = inhibition	%	-1.67
Cc1ccccc1N1C(=O)C2ON(c3ccccc3)C(c3ccncc3)C2C1=O (stereo not given)	activity, negative = inhibition	%	1.29
CCCCOc1ccc(C2CC(=O)N(C)C2=O)cc1 (stereo not given)	activity, negative = inhibition	%	4.12
O=C1CC(NCc2ccncc2)C(=O)N1c1ccc(Cl)cc1 (stereo not given)	activity, negative = inhibition	%	-1.32
CC(=O)C1=C(O)C(=O)N(c2ccc(C(=O)O)cc2)C1c1ccccc1 (stereo not given)	activity, negative = inhibition	%	0.835
Cn1c(Cl)nc2c1c(=O)n(Cc1cccc(Br)c1)c(=O)n2C	activity, negative = inhibition	%	12.7
O=C(O)CC(C(=O)N(c1ccccc1)c1ccccc1)N1CCOCC1 (stereo not given)	activity, negative = inhibition	%	8.75
CC(C)(C)C1=Nn2c(nnc2C2CCCCC2)SC1	activity, negative = inhibition	%	22.7
Nc1nonc1OCCc1ccccc1	activity, negative = inhibition	%	-6.28
Cn1c(OCc2ccco2)nc2c1c(=O)n(Cc1ccc(Cl)c(Cl)c1)c(=O)n2C	activity, negative = inhibition	%	0.615
COc1ccc(OC(=O)c2cc3ccccc3o2)cc1	activity, negative = inhibition	%	10.1
Cc1ccc(Cn2ncc3c(N4CCN(c5ccc(C)cc5)CC4)ncnc32)cc1	activity, negative = inhibition	%	-13.5
COCc1[nH]nc2c1C(c1ccc(OC)cc1)C(C#N)=C(N)O2 (stereo not given)	activity, negative = inhibition	%	-11.4
Cc1ccsc1C1NC(=O)c2c(sc3c2CCCC3)N1 (stereo not given)	activity, negative = inhibition	%	-6.73
O=c1[nH]nc2n1CCCCC2	activity, negative = inhibition	%	7.42
Nc1cccc(C(=O)O)c1	activity, negative = inhibition	%	4.89
COC(=O)c1cc(Br)c(=O)n(Cc2ccco2)c1	activity, negative = inhibition	%	-3.41
CN(C)/C=C1\N=C(c2cccs2)OC1=O	activity, negative = inhibition	%	13.9
CCOC(=O)CC1=C(C(=O)OCC)C(c2cc(OC)c(OC)cc2OC)C(C#N)=C(N)O1 (stereo not given)	activity, negative = inhibition	%	10.5
OCCN(CCO)c1ncnc2c1sc1nc(N3CCOCC3)c3c(c12)CCCC3	activity, negative = inhibition	%	-21.5

###

# experimental system: Cytochrome P450 1A2 (Homo sapiens) (UniProt P05177)
# Sequence (P05177 whole entry, looked up): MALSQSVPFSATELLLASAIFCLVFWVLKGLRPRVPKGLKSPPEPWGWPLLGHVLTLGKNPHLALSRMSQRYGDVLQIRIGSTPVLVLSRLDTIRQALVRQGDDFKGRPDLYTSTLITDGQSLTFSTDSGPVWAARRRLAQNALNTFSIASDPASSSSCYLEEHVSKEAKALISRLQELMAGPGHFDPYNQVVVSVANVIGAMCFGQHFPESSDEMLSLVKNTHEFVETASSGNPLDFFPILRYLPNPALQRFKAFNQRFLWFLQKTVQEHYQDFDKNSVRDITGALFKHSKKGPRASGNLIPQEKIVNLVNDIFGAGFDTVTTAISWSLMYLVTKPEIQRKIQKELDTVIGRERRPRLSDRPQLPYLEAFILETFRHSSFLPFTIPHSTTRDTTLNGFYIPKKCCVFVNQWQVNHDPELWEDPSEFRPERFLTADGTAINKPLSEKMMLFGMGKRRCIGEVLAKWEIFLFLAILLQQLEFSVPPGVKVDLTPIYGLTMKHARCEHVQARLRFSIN
# assay overview: p450-cyp1a2 (AID 410)
# condition set: recombinant CYP1A2, luciferin-ME demethylation, luminescence; series mostly up to 57 µM
Results filed as inconclusive are left out. The source made the active and inactive calls. The call rests on the fitted dose curve.
Outcomes: active, inactive

molecule	label
CCCc1cc2c(n1Cc1cc(F)cc(F)c1)C(C)C1CN(C(=O)c3ccccc3)C(C)(C(=O)OC)C21 (configuration not stated)	inactive
CCCCCC1=C2CNC(Cc3ccccc3)(C(=O)OC)C=C2C(C)C1=O (configuration not stated)	active
CCCC[C@@H]1C[C@H]1C(NC(=O)c1cccs1)c1ccccc1C(F)(F)F (some centres not stated)	active
COc1ccc(-c2cc(=O)c3ccc(O)cc3o2)cc1	active
CC(C)C[C@@H](CC(=O)N[C@@H](CCC(=O)O)CC(=O)O)NC(=O)[C@@H]1CNCC[C@H]1NC(=O)C[C@H](CCCN)NC(=O)C[C@H](Cc1ccccc1)NC(=O)[C@@H]1CCCC[C@H]1N	active
COC(=O)[C@@]1(Cc2ccc(F)cc2)[C@H]2c3cc(C(=O)N(C)C)n(Cc4ccc(Cl)c(C(F)(F)F)c4)c3C[C@H]2CN1C(=O)c1ccccc1	active
CCCC[C@@H]1C[C@H]1C(NC(=O)Cc1ccccc1)c1ccc(-c2ccccc2)cc1 (some centres not stated)	inactive
NCCC[C@@H](CC(=O)N[C@@H]1CCNC[C@H]1C(=O)N[C@H](CC(=O)N[C@@H](CCC(=O)O)CC(=O)O)Cc1ccccc1)NC(=O)C[C@H](Cc1c[nH]c2ccccc12)NC(=O)[C@@H]1CNCC[C@H]1N	inactive
CCCC[C@@H]1C[C@H]1C(NC(=O)c1ccc(C(F)(F)F)cc1)c1ccc(C(=O)OC)cc1 (some centres not stated)	active
CCCC[C@H]1C[C@@H]1[C@@H]1N(P(=O)(c2ccccc2)c2ccccc2)C[C@@](O)(c2ccccc2)CC12CC2	inactive
COc1cc(/C=C\C(=O)CC(=O)/C=C\c2ccc(O)c(OC)c2)ccc1O	active
CC(C)C[C@@H](CC(=O)N[C@H](CC(=O)N[C@@H]1CCNC[C@H]1C(=O)N[C@H](CC(=O)N[C@@H](CCC(=O)O)CC(=O)O)Cc1ccccc1)C(C)C)NC(=O)[C@@H]1CCCC[C@H]1N	inactive
CCC/C=C(\CCC)C(NC(=O)Oc1ccc(F)cc1)c1ccc(C(=O)OC)cc1 (configuration not stated)	inactive
CC1(C)[C@@H](O)CC[C@@]2(C)[C@H]1CC[C@]1(C)[C@H]2C(=O)C=C2[C@@H]3C[C@@](C)(C(=O)O)CC[C@]3(C)CC[C@@]21C	inactive
O=c1c(O)c(-c2ccc(O)c(O)c2)oc2c(OC[C@H]3O[C@@H](O)[C@@H](O)[C@H](O)[C@@H]3O)c(O)cc(O)c12	inactive
CC(=O)O[C@@H]1CC[C@]2(C)[C@H]3CC[C@]4(C)[C@H](C[C@H]5CCCC[C@@]54C(C)=O)[C@@H]3CC(=O)[C@@]2(O)C1	active
CC(C)C[C@@H](CC(=O)N[C@H](CC(=O)N[C@@H]1CCCC[C@H]1C(=O)N[C@H](CC(=O)N[C@@H](CCC(=O)O)CC(=O)O)CC(C)C)C(C)C)NC(=O)[C@@H]1CCCC[C@H]1N	inactive
CNCC[C@H](Oc1ccccc1C)c1ccccc1	active
C[C@@H](C(=O)Nc1ccc2ccccc2c1)[C@@H]1C[C@@]1(C)[C@@H](NC(=O)c1cnccn1)c1ccccc1	active
CCCC/C=C/C(NC(=O)c1ccco1)c1ccccc1 (configuration not stated)	active
O=C(N[C@@H](c1ccccc1)[C@@H]1C[C@H]1C(=O)O)OCc1ccccc1	active
COc1ccc2oc(-c3ccc(O)cc3)cc(=O)c2c1	active
CC(C)[C@@H](CC(=O)N[C@@H]1CCNC[C@H]1C(=O)N[C@H](CC(=O)N[C@@H](CCC(=O)O)CC(=O)O)Cc1c[nH]c2ccccc12)NC(=O)C[C@H](Cc1c[nH]c2ccccc12)NC(=O)[C@@H]1CNCC[C@H]1N	inactive
CCC#CCOCC(=S)Nc1ccccc1	active
C=C(CC1([C@@H](NP(=O)(c2ccccc2)c2ccccc2)[C@H]2C[C@@H]2CCCC)CC1)c1cccc(OC)c1	active
CCCC[C@@H]1C[C@H]1C(NC(=O)c1ccco1)c1ccccc1 (some centres not stated)	active
COC(=O)[C@@]1(Cc2ccccc2)[C@H]2c3cc(C(=O)N(C)C)n(CCN4CNCC4=O)c3C[C@H]2CN1C(=O)c1ccccc1	active
C[C@@H](C(=O)NCc1ccc(S(C)(=O)=O)cc1)[C@H]1C[C@]1(C)[C@H](NC(=O)OCc1ccccc1)c1ccccc1	active
COc1cc(-c2cc(=O)c3ccccc3o2)ccc1O	active
CC1=C(C(=O)OCc2ccccc2)C(c2ccc3ccccc3c2)NC(=O)N1CCCCCC(=O)O (configuration not stated)	active
CCC/C=C(\CCC)C(NP(=O)(c1ccccc1)c1ccccc1)c1ccc(C(F)(F)F)cc1 (configuration not stated)	inactive
COc1cc2c(cc1OC)C(=O)N(C)CC2	active
